Attribute: processed/unprocessed PreF trimer binding ratio
- assaySystem: T1, Processed stabilized hMPV PreF trimer (115BV) (human metapneumovirus, strain B2)
- T1 construct: also called Processed hMPV PreF trimer; processed PreF
- assayNotes: BLI, ratio to unprocessed PreF trimer
recordedMetric: processed/unprocessed PreF trimer binding ratio

binder	endpointValue
M2E05 (antibody, V domains shown, IgG) VH: QVQLQESGPGLVKPSEILSLTCTVSRYSINSGYYWGWIRQPPGKGLEWVGCVSHAGVTYYNPSLESRVAVSLDTSKNQFSLKMTSVSAADTAMYYCAASSNWHNALEYWGQGTLVAVSS VL: QSVLTQPPSASGTPGQSVTISCSGSSSNMGINWVYWYQQLPGTAPKLLIYRNSQRPSGVPDRFSGSQSGTSASLAISGLRSEDEGHYYCAVWDDVVSGRLFGGGTKLTVL	0.54
M2C10 (antibody, V domains shown, IgG) VH: QVQLVESGGGVVQPGRSLRLSCAASGFTFNNYAMHWVRQAPGKGLEWVALISDDGSKKYFADALKGRFTIFRDNSKNTLYLQMNSLRAEDTAVYYCARDPTPLGEYYFDYWGQGTLVTVSS VL: DIQMTQSPSSLSASVGDRVTITCRASQTISGYLNWYQQKPGKAPNLLIYTASSLESGVPSRFSGSGSETDFTLTISSLQPEDFATYYCQQSYRMPLTFGGGTRVSLK	0.25
M2D08 (antibody, V domains shown, IgG) VH: QVQLVESGGGVVQPGRSLRLSCAASGFVFRFSGMHWIRQAPGKGLQWVAHISDDGSQKYYADSVTGRFAISRDNSRNTLFLEMTGLRGDDTAVYYCARGDYGVSYFLAHWGLGELVIVSS VL: EIVLTQSPATLSLSPGERATLSCRASQNIYNYLAWYQQKPGQAPRLVIYDASNRATGIPARFSGSGSETDFTLTISSLEPEDFAVYYCQQRSDWTFGQGTKLEIK	0.44
M3C11 (antibody, V domains shown, IgG) VH: QVQLQESGPGLVKPSETLSLTCTVSGGSLSSYCWSWIRQPPGKGLEWIGYIYYSGGTNYNPSLKSRVTISVDTSKNQFSLNLSSVTAADTAVYYCARGEASGYLNYYFDYWGQGTLVAVSS VL: SYELTQPPSVSVSPGQTASITCSGHKLGDKYAYWYQQKPGQSPVLVIYQDNKRPSGIPERFSGSNSGNTATLTISGTQAMDEADYYCQAWDSGTVFGGGTKLTVL	0.25
M2D02 (antibody, V domains shown, IgG) VH: QVQLVQSGAEVKKPGSSVKVSCKASGGTLTRYTISWVRQAPGQGLEWMGRIIPFLDIANYAPRFQGRVTMTADKSTSTAYMELSSLTSQDTAIYYCARDHSGNYFDLWGQGTLVTVSS VL: EIVMTQSPATLSVSPGERATLSCRASQSVTSNLAWYQRKPGQAPRLLIYGASTGATDIPGRFSGSGSGTEFTLTISGLQSEDFAVYYCQQYDHWPRTFGQGTKVEIK	0.22
M3B04 (antibody, V domains shown, IgG) VH: QVQLQESGPGLVKPSETVSLTCTVSGGSISSNNWWSWVRQSPGKGLEWIGEIYHSGSTNFNPSLKSRVTISVDKSKNHFSLKLGSLTAADTAVYYCARRPNDYGDYSYYYYYYMDVWGKGTTVTVSS VL: EIVLTQSPATLSLSPGESATLSCRASQSINRNLAWYQQKPGQAPRLLIYDASNRATGIPARFSGSGSGTDFTLTISSLEPEDFAVYYCQQRSHWVTFGQGTRLEIK	0.17
M3C04 (antibody, V domains shown, IgG) VH: EVQLVQSGAEVKKPGESLKISCKGSGYNFANYWIGWVRQMPGKGLEWMGIIYPGDSDTRRNPSFQGHVTMSVDQSISTAYLQWSSLKASDTAMYYCARPLAVSAFDIWGQGTMVTVSS VL: DIQMTQSPSSLSASVGDKLTITCRASQSISNYLNWYQQKSGKAPKLLIYAASSLQSGVPSRFSGSGSGTDFTLTISSLQPEDFATYYCQQSASTPHTFGQGTKVEIV	0.82
M2D11 (antibody, V domains shown, IgG) VH: QVQLQQWGAGLLKPSETLSLTCAVSGGSFSGYHWTWIRQPPGKGLEWIGEVDHGGNTNYNPSLMSRVTISVDMSTKQFSLRLTSMTAADTAVYYCARGFGVVINNWFDPWGQGTLVTVTS VL: DIQMTQSPSSLSASVGDRVTITCRASQTISSYLNWYQQKPGKAPNLLIYTVSTLQSGVPSRFSGSGSGTDFTLTISSLQPEDFATYYCQQSYGAPYTFGQGTKLEIK	1.06
M3A04 (antibody, V domains shown, IgG) VH: QVQLVESGGGVVQPGRSLRLSCAASGLTFSTYVMHWVRQAPGKGLEWVAVISYDGTNEHYADSVKGRFTISRDNSKNTLYLQMNSLRPEDTAVYYCARGTADYDVWSGSAWGGFDYWGQGTLVTVSS VL: DIQMTQSPSSLSASVGDRVTITCRASQSISSYLNWYQQKPGKAPKLLMYTVSSLPSGVPSRFSGSGSGTDFTLTISSLQPEDFATYYCQQSYNIPYTFGQGTKLEIK	0.23
M3E09 (antibody, V domains shown, IgG) VH: EVQLVESGGGVVRPGGSLRLSCAASGFRFDDYAMNWVRQAPGKGLEWVSGINWIGGTTKYADSVKGRFTISRDNTKNSLYLQMNSLRAEDTALYYCARGVGYYYYYMDVWGRGTTVTVSS VL: EIVLTQSPGTLSLSPGERATLSCRATQSVSSNYLAWYQQKPGQAPRLLIYDASSRAIGIPDRFSGSGSGTDFTLTISRLESEDFAVYYCQQYGSSPETFGQGTKVEIK	0.42
